Source: PubChem BioAssay

# maps each entry to its composite z-score
# TARGET: Neurogenic locus notch homolog protein 3 (Homo sapiens) (UniProt Q9UM47)
# Sequence (Q9UM47 whole entry, looked up): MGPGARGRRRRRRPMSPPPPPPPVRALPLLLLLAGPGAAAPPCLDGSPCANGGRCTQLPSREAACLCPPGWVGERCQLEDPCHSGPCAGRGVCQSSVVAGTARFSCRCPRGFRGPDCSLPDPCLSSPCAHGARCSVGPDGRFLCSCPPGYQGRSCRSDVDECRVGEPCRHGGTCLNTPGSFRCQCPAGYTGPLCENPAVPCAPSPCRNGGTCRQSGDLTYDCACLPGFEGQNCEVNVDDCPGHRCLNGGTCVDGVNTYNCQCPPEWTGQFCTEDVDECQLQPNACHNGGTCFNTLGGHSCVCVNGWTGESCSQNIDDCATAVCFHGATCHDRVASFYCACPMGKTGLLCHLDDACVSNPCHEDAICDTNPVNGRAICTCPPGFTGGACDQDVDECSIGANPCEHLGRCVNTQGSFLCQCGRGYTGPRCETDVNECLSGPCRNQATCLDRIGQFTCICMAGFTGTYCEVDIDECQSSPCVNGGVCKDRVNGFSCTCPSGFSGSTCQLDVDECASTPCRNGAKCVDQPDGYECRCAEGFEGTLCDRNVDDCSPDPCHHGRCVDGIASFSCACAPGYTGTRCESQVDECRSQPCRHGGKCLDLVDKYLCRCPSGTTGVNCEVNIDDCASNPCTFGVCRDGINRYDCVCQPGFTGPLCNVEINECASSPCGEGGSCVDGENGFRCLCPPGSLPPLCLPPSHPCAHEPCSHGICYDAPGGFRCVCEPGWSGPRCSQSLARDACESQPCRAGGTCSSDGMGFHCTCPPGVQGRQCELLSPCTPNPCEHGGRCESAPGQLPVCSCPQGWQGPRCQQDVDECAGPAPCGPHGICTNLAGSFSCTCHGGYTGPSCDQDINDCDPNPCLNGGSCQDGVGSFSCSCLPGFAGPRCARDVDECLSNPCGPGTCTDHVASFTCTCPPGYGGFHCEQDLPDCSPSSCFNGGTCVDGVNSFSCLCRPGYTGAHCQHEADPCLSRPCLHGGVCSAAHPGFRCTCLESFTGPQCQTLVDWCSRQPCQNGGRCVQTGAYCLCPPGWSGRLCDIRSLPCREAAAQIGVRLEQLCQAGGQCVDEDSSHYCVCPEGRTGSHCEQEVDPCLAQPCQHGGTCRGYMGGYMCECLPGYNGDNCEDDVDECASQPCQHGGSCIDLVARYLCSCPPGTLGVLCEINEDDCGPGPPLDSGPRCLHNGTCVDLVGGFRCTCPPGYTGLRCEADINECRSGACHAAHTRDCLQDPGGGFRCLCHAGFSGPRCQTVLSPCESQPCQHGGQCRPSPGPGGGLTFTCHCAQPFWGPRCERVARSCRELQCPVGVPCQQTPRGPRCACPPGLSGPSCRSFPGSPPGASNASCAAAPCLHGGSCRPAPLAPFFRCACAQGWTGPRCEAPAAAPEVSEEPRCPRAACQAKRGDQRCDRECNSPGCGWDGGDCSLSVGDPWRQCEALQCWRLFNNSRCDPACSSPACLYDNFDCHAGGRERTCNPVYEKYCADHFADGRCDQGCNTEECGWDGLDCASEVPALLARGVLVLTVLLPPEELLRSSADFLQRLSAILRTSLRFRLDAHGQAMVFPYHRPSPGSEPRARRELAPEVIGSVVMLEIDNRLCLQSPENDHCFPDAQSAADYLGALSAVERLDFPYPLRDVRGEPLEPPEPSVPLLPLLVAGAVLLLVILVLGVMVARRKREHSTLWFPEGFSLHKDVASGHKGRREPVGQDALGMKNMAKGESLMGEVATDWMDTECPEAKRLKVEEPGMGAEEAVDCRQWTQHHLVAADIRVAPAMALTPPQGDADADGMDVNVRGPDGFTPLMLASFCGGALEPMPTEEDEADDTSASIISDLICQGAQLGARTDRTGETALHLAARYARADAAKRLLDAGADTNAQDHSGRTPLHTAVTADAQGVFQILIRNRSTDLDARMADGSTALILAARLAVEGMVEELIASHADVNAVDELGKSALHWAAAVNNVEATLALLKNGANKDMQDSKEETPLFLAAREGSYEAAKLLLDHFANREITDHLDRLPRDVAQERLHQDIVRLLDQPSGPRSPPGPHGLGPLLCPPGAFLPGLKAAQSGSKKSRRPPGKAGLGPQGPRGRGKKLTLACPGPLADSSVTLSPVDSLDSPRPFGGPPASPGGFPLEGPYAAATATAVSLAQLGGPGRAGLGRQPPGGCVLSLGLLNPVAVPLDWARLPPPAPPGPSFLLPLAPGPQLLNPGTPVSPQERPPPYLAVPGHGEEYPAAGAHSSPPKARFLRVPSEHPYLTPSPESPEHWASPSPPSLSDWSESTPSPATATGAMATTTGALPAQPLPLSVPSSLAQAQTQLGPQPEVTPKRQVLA
# ASSAY_TEXT: small molecules binding NOTCH3 protein – biochemical, 635/667 nm fluorescence, primary screen (AID 1096)
# PARTICULARS: small-molecule microarray, 635 nm fluorescence, higher = more signal
The answer should be a number; do not append a unit.

Solved entries (count: 3):
For "C=CCNC(=O)[C@H]1[C@@H]2C(=O)O[C@@H](c3ccccc3)[C@@H](c3ccccc3)N2[C@@H](c2ccccc2OCCO)[C@]12C(=O)N(C(=O)OCCOC)c1ccc(C#CC3(O)CCCCCC3)cc12" on Neurogenic locus notch homolog protein 3 (Homo sapiens) (UniProt Q9UM47), measured composite z-score was 0.759

For "COC(=O)C/C=C/C[C@]1(O)C(=O)N(C)c2ccccc21" on Neurogenic locus notch homolog protein 3 (Homo sapiens) (UniProt Q9UM47), measured composite z-score was 0.434

For CCCCC(CC)C(O)C1C=CC2C(=O)N(c3ccccc3)C(=O)C2N1Nc1ccccc1F (centres undefined) on Neurogenic locus notch homolog protein 3 (Homo sapiens) (UniProt Q9UM47), measured composite z-score was 0.822

More entries:
For "COc1ccc([C@H]2OC[C@@H]3C[C@H](Cc4ccccc4)C(=O)N32)cc1" on Neurogenic locus notch homolog protein 3 (Homo sapiens) (UniProt Q9UM47), measured composite z-score was 0.363

====

# Test system: Human papillomavirus type 1a E7 protein (residues 1-88)
# ASSAY_TEXT: HPV1a E7 small-molecule binders, primary screen, biochemical, small-molecule microarray, residues 1-88, 635 nm (AID 1129)
# PARTICULARS: small-molecule microarray binding, fluorescence 635 nm; higher = more signal
# maps each entry to its composite z-score
The answer should be a number; do not append a unit.

Sure, the documented composite z-score for "CCOC(=O)C[C@H]1[C@H](OC(=O)c2ccc(C(=O)c3ccccc3)cc2)[C@@H](NC(=O)C2CCCCC2)c2cc(OCCCO)ccc2N1C(=O)c1ccc2ccccc2n1" is 0.835

More entries:
Sure, the documented composite z-score for "CC(C)[Si]1(C(C)C)OCc2cc(C3CC3)nc(-c3ccc(Oc4ccccc4)cc3)c21" is -1.1

Sure, the documented composite z-score for "CC(C)C[C@@H]1NC(=O)[C@@H]2C[C@H](C(=O)NCCCCCCN)[C@H](c3cccc(OCCO)c3)N2C1=O" is 1.11

Sure, the documented composite z-score for "CC(=O)NCCCC[C@@H]1NC(=O)[C@@H]2C[C@H](C(=O)NCCCCCN)[C@H](c3cccc(OCCO)c3)N2C1=O" is 1.04

====

# TARGET: Pro-neuregulin-1, membrane-bound isoform (Homo sapiens) (UniProt Q02297)
# Sequence (Q02297 whole entry, looked up, canonical isoform): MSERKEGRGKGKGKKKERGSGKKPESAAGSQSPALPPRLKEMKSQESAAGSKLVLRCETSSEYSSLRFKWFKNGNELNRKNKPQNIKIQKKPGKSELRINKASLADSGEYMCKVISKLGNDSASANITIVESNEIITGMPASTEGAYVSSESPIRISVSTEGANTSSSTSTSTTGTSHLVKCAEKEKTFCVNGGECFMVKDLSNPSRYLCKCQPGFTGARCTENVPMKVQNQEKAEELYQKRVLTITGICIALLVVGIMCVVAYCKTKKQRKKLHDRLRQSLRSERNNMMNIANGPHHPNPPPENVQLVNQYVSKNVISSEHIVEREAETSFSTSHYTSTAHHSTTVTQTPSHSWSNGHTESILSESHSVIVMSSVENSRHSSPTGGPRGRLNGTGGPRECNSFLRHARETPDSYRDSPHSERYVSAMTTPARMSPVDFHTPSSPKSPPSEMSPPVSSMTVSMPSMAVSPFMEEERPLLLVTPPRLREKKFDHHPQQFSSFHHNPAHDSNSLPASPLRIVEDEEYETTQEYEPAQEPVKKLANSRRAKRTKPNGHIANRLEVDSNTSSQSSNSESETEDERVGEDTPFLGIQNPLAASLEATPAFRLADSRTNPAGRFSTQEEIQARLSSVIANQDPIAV
# ASSAY_TEXT: small molecules binding neuregulin-1 protein – biochemical, small-molecule microarray, fluorescence 635/667, psychiatric disease protein project, primary screen (AID 1075);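 also: score combines 667 nm spot fluorescence with signal to noise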
# PARTICULARS: NRG1 binding, 635 nm fluorescence, higher = more signal
QUANTITY_MEASURED: composite z-score
The answer should be a number; do not append a unit.

Solved entries (count: 3):
Sure, the documented composite z-score for "CCCCC=C[C@@H](NC(=O)OCc1ccccc1Cl)c1ccccc1" is 1.51

Sure, the documented composite z-score for "CN(C)C(=O)[C@]1(Cc2ccccc2CN=[N+]=[N-])N=C(c2ccc(OCCCO)cc2)O[C@@H]1c1ccccc1" is 1.62

Sure, the documented composite z-score for "COc1ccc(C#Cc2ccc3c(c2)[C@]2(C(=O)N3)[C@H](C(=O)O)[C@H]3C(=O)O[C@H](c4ccccc4)[C@H](c4ccccc4)N3[C@@H]2c2ccc(O)cc2)cc1" is 0.418

More entries:
Sure, the documented composite z-score for CCCCN1CC=CC23O[C@@H]4/C=C\CCC(C)OC(=O)C4[C@H]2C(=O)N(CCCO)[C@@H]3C1=O (stereo partly specified) is 1.93

Sure, the documented composite z-score for CCCCCC1=C2CNC(C)(C(=O)OC)C=C2C(C)C1=O (stereo unspecified) is 1.07

Sure, the documented composite z-score for CCCCC(CC)C(O)C1C=CC2C(=O)N(C)C(=O)C2N1Nc1ccccc1 (stereo unspecified) is 0.517

Sure, the documented composite z-score for COC(=O)C1=CC(CCCO)=CC(c2cccs2)N(C)C=C1C(=O)OC (stereo unspecified) is 1.08

Sure, the documented composite z-score for CC(C)C(CO)N1C(=O)[C@@H]2C3C(=O)OCCC/C=C\[C@H]3OC23C=CCN(Cn2nnc4ccccc42)C(=O)[C@@H]13 (stereo partly specified) is 1.88

Sure, the documented composite z-score for "COC(=O)[C@@]1(Cc2ccccc2)[C@H]2c3cc(C(=O)N4CCCC4)n(CCc4ccccn4)c3C[C@H]2CN1C(=O)c1ccccc1" is 2.09

Sure, the documented composite z-score for "C=CC[C@]1(C(=O)N2CCOCC2)COC(c2ccc(OCCCO)cc2)=N1" is 1.52

Sure, the documented composite z-score for [N-]=[N+]=Nc1ccccc1C[C@]1(C(=O)NCC(O)CO)COC(c2ccc(OCCCO)cc2)=N1 (stereo partly specified) is 1.43

Sure, the documented composite z-score for "NCCCCCCNC(=O)[C@@H]1C[C@@H]2C(=O)N[C@@H](CCCCN)C(=O)N2[C@@H]1c1ccc(O)cc1" is 2.01

====

# TARGET: NADPH oxidase 4 (Homo sapiens)
# ASSAY_TEXT: compounds shifting NOX4 Amplex Red fluorescence – cell-based, HEK293-NOX4, tetracycline-induced, NOX inhibitor project, primary screen (AID 1160)
# PARTICULARS: HEK293-NOX4, Amplex Red H2O2 fluorescence, 45 min; higher = more signal, called active from +8 up or from −8 down
# maps each entry to its z-score
The answer should be a number; do not append a unit.

Solved entries (count: 4):
Sure, the documented z-score for "C=C(C(=O)CC[C@H](OC(=O)c1ccccc1-c1ccccc1C(=O)O)c1cccc(OCCO)c1)C(C)C" is 0.361

Sure, the documented z-score for "COc1ccc(C#Cc2ccc3c(c2)[C@]2(C(=O)N3)[C@H](c3ccc(OCCO)cc3)N3[C@H](c4ccccc4)[C@H](c4ccccc4)OC(=O)[C@H]3[C@@H]2C(=O)NC[C@H](O)c2ccccc2)cc1" is 0.194

Sure, the documented z-score for "CCCN1C(=O)[C@@]2(Cc3ccccc31)N=C(c1ccc(OCCCO)cc1)O[C@H]2c1ccccc1" is -0.123

Sure, the documented z-score for "[N-]=[N+]=Nc1ccccc1C[C@@]1(C(=O)NCCN2CCOCC2)N=C(c2ccc(OCCCO)cc2)O[C@@H]1c1ccccc1N=[N+]=[N-]" is -0.157

# context switch: different compound, same z-score
Sure, the documented z-score for CC(=O)N1CC2(CC2)CC1c1ccccc1 (stereo not given) is -1.08

====

# ASSAY_TEXT: basal CRE-LacZ reporter activity in PC12 – cell-based, unstimulated, primary screen (AID 1145)
# PARTICULARS: no forskolin, luminescence, 4.5 h, higher = more signal, called active from +8 up or from −8 down
QUANTITY_MEASURED: z-score
The answer should be a number; do not append a unit.

Solved entries (count: 6):
Sure, the documented z-score for C[C@@H]1NC(=O)[C@@H](Cc2ccccc2)NC(=O)[C@@]23C(=O)N[C@@H](Cc4ccccc4)C2[C@H](C)[C@@]2(C)O[C@H]2C3/C=C/C/C=C\CNC1=O (some centres not stated) is 3.57

Sure, the documented z-score for "CN(C)CCCCCCNC(=O)[C@@H]1C[C@@H]2C(=O)N3CCC[C@H]3C(=O)N2[C@@H]1c1cccc(OCCO)c1" is 0.151

Sure, the documented z-score for Cc1ccccc1C(O)C1C=CC2C(=O)NC(=O)C2N1Nc1ccccn1 (configuration not stated) is -0.708

Sure, the documented z-score for CC1CC/C=C\[C@H]2OC34C=CCN(c5ccc6ccccc6c5)C(=O)[C@H]3N(CCCO)C(=O)[C@@H]4C2C(=O)O1 (some centres not stated) is 0.191

Sure, the documented z-score for "COc1ccc([C@H]2OC[C@@H]3C[C@H](Cc4ccccc4)C(=O)N32)cc1" is 1.99

Sure, the documented z-score for "C=CCN1Cc2ccccc2[C@@H]2OC(c3ccc(OCCCO)cc3)=N[C@]2(CC=C)C1=O" is 0.236

More entries:
Sure, the documented z-score for "C=CCOC(=O)[C@@H]1[C@H]2C(=O)O[C@H](c3ccccc3)[C@H](c3ccccc3)N2[C@H](c2ccc(OCCOC(=O)[C@@H]3C[C@@H]4C(=O)N[C@@H](CCCC[N+](C)(C)C)C(=O)N4[C@@H]3c3ccc(O)cc3)cc2)[C@@]12C(=O)Nc1ccc(I)cc12" is -1.35

Sure, the documented z-score for COC(=O)C1=CC(CCCO)=CC(c2cccs2)N(C)C=C1C(=O)OC (configuration not stated) is -0.285

Sure, the documented z-score for "O=C1N(Cc2ccccc2)c2ccccc2C[C@]12N=C(c1ccc(OCCCO)cc1)O[C@@H]2c1ccccc1" is 1.75

Sure, the documented z-score for "C=CCOC(=O)[C@@]1(Cc2ccccc2)C[C@H]2CO[C@H](c3ccc(OC)cc3)N2C1=O" is 2.72

Sure, the documented z-score for "CCOC(=O)C[C@H]1[C@H](OC(=O)c2ccc(C(=O)c3ccccc3)cc2)[C@@H](NC(=O)c2ccc(-c3ccccc3)cc2)c2cc(OCCCO)ccc2N1C(=O)Cc1ccc(OC)cc1" is -0.0989

Sure, the documented z-score for CN1C(=O)C2C=CC(C(O)c3cccn3C)N(Nc3ccc([N+](=O)[O-])cc3[N+](=O)[O-])C2C1=O (configuration not stated) is 1.4

Sure, the documented z-score for "[N-]=[N+]=Nc1ccccc1C[C@]1(C(=O)N2CCOCC2)COC(c2ccc(OCCCO)cc2)=N1" is 0.344

Sure, the documented z-score for CCCCC[C@H]1OC[C@@]23C=C(Br)[C@@H](CC12)[C@@]1(CO1)C3=O (some centres not stated) is 0.495

Sure, the documented z-score for "C=CC[C@@H](OC(=O)Nc1ccc(SC)cc1)c1ccc(O)c(F)c1" is 9.49

Sure, the documented z-score for "CC(C)[Si]1(C(C)C)OCc2cc(-c3ccc(-c4ccc(Cl)c(Cl)c4)o3)nc(-c3ccccc3)c21" is 0.484

Sure, the documented z-score for CCCCC(CC)C(O)C1C=CC2C(=O)N(C)C(=O)C2N1Nc1ccccc1 (configuration not stated) is -0.14
